Data provenance is the supplement of paper PMC6331611.

# System: Salmonella enterica serovar Typhimurium SL1344
# test.protocol: normalized growth (OD600, IQM-normalized) in LPM (fraction of plate interquartile mean); higher = more bacterial growth (less inhibition)
# applied.conditions: LPM pH 5.8; 10 µM; 16 h
The full ranking holds about 1,600 compounds; the median of “normalized growth (OD600, IQM-normalized) in LPM” is about 1, and the lowest 2% start at about 0.014. The sample as a whole holds a higher share of the lowest values than the screen did.
Provide the reported normalized growth of each item.
A bare number is all that is needed in reply.

For the molecule shown here, CC(C)(Oc1ccc(C(=O)c2ccc(Cl)cc2)cc1)C(=O)O , give the reported normalized growth.
0.976

Now the same for CCOC(=O)c1ccc(O)cc1
1.02

Try C1CCN2C[C@@H]3C[C@@H](CN4CCCC[C@@H]34)[C@H]2C1 next.
1.13

###

# Tested on: Salmonella enterica serovar Typhimurium SL1344
# test.protocol: normalized growth (OD600, IQM-normalized) in LPM (fraction of plate interquartile mean); higher = more bacterial growth (less inhibition)
# applied.conditions: LPM pH 5.8; 10 µM; 16 h
In all, about 1,600 compounds were measured (“normalized growth (OD600, IQM-normalized) in LPM”: median about 1, lowest 2% from about 0.014 on). This excerpt belongs to a sample that is enriched for the lowest values.
Given measured normalized growth, output TRUE if it is greater than or equal to 1 and FALSE if not.

Is it the case that CC(=O)OCC(=O)[C@@]1(O)CC[C@H]2[C@@H]3CCC4=CC(=O)CC[C@]4(C)[C@@]3(F)[C@@H](O)C[C@@]21C has normalized growth reaching or exceeding 1?
TRUE

Again, but for O=c1[nH]c(=O)n([C@H]2C[C@H](O)[C@@H](CO)O2)cc1I
TRUE

And for CN(N=O)C(=O)N[C@H]1C(O)O[C@H](CO)[C@@H](O)[C@@H]1O (mixture of isomers) ?
FALSE

Would you kindly repeat that for CCc1cn([C@H]2C[C@H](O)[C@@H](CO)O2)c(=O)[nH]c1=O ?
FALSE

Do the same for CCC(C)(C)C(=O)O[C@H]1C[C@@H](C)C=C2C=C[C@H](C)[C@H](CC[C@@H]3C[C@@H](O)CC(=O)O3)[C@H]21 please
FALSE

Same lookup for O=c1[nH]c(=O)n([C@H]2C[C@H](O)[C@@H](CO)O2)cc1F , please.
FALSE

Now the compound Nc1ncn([C@@H]2O[C@H](CO)[C@@H](O)[C@H]2O)c(=O)n1
FALSE

###

# Tested on: Salmonella enterica serovar Typhimurium SL1344
# test.protocol: normalized growth (OD600, IQM-normalized) in LPM (fraction of plate interquartile mean); higher = more bacterial growth (less inhibition)
# applied.conditions: LPM pH 5.8; 10 µM; 16 h
The full ranking holds about 1,600 compounds; the median of “normalized growth (OD600, IQM-normalized) in LPM” is about 1, and the lowest 2% start at about 0.014. This is one part of a sample in which the lowest values are shown more often than they occur.
Tick 1 (yes) if normalized growth is 0.6 or greater. Tick 0 (no) if normalized growth is less than 0.6.

Form field: normalized growth at least 0.6? Entry: Oc1ccc(Cl)c2cccnc12
1 (yes)

What about this compound? CC(=O)NC(Cc1ccccc1)C(=O)O (stereo not drawn)
1 (yes)

And what about the compound Cc1oc(=O)oc1CN1CCN(c2cc3c(cc2F)c(=O)c(C(=O)O)c2n3C(C)S2)CC1 (stereo not drawn) ?
0 (no)

Also check CC=CC1=C(C(=O)O)N2C(=O)[C@@H](NC(=O)[C@H](N)c3ccc(O)cc3)[C@H]2SC1
1 (yes)

Quick one: CC(O)(CC(=O)O)CC(=O)O
1 (yes)

Here is the next compound: CC(=O)c1ccc2c(c1)N(CCCN1CCN(CCO)CC1)c1ccccc1S2
1 (yes)

Now this one: Cc1cccc(C)c1NC(=O)c1ccccc1C(=O)O
1 (yes)

Next compound: CSCC[C@H](NC(=O)[C@H](Cc1c[nH]c2ccccc12)NC(=O)CCNC(=O)OC(C)(C)C)C(=O)N[C@@H](CC(=O)O)C(=O)N[C@@H](Cc1ccccc1)C(N)=O
1 (yes)

Likewise for Cc1cnc(C(=O)O)c[n+]1[O-] ?
1 (yes)

// same read-out, input: O=C1C(CC[S+]([O-])c2ccccc2)C(=O)N(c2ccccc2)N1c1ccccc1 (stereo not drawn)
1 (yes)

Queued: CCOC(=O)OC(C)OC1=C(C(=O)Nc2ccccn2)N(C)S(=O)(=O)c2ccccc21 (stereo not drawn)
1 (yes)

For C=COCC(F)(F)F then?
1 (yes)

Same for CC[C@H](c1ccc(O)cc1)[C@@H](CC)c1ccc(O)cc1
1 (yes)

Repeat for the following compound: CC1CCc2c(N3CCC(O)CC3)c(F)cc3c(=O)c(C(=O)O)cn1c23 (stereo not drawn)
0 (no)

Now try Cc1c(NC(C)C)c(=O)n(-c2ccccc2)n1C .
1 (yes)

What do you have for O=C(OOC(=O)c1ccccc1)c1ccccc1 ?
1 (yes)

Field entry: COc1ccc(-c2cc(C(F)F)nn2-c2ccc(S(N)(=O)=O)cc2)cc1F
1 (yes)

Try this compound next: CCC1=C(C)CN(C(=O)NCCc2ccc(S(=O)(=O)NC(=O)N[C@H]3CC[C@H](C)CC3)cc2)C1=O
1 (yes)

Check C[C@H]1COc2c(N3CCN(C)CC3)c(F)cc3c(=O)c(C(=O)O)cn1c23 too.
0 (no)

Then COc1c(N2C[C@@H]3CCCN[C@@H]3C2)c(F)cc2c(=O)c(C(=O)O)cn(C3CC3)c12 ?
0 (no)

Now this one: CS(=O)(=O)c1ccc(C2=C(c3ccccc3)C(=O)OC2)cc1
1 (yes)

Do the same for CO/N=C(\C(=O)N[C@@H]1C(=O)N2C(C(=O)O)=C(COC(C)=O)CS[C@H]12)c1csc(N)n1 please
0 (no)

// query: CC(C)OC(=O)CCC/C=C\C[C@@H]1[C@@H](/C=C/[C@@H](O)COc2cccc(C(F)(F)F)c2)[C@H](O)C[C@@H]1O
1 (yes)

Repeat with C[C@@H]1CN(c2c(F)c(F)c3c(=O)c(C(=O)O)cn(C4CC4)c3c2F)C[C@H](C)N1
0 (no)

Next up: CO/N=C1\CN(c2nc3c(cc2F)c(=O)c(C(=O)O)cn3C2CC2)CC1CN (stereo not drawn)
0 (no)

Continue with CN(Cc1cnc2nc(N)nc(N)c2n1)c1ccc(C(=O)NC(CCC(=O)O)C(=O)O)cc1 (racemic)
1 (yes)

Another: C=CC1=C(C(=O)O)N2C(=O)[C@@H](NC(=O)/C(=N\O)c3csc(N)n3)[C@H]2SC1
0 (no)

Next compound: Oc1c(I)cc(I)c2cccnc12
0 (no)

C[C@H]1COc2c(C3(N)CC3)c(F)cc3c(=O)c(C(=O)O)cn1c23 ?
0 (no)

What about O=C(O)C1=C(CSc2nnnn2CS(=O)(=O)O)CS[C@@H]2[C@H](NC(=O)[C@H](O)c3ccccc3)C(=O)N12 ?
1 (yes)

What about CN1CCN(c2c(F)cc3c(=O)c(C(=O)O)cn4c3c2SCC4)CC1 ?
0 (no)

Another compound to check: CC(=O)Nc1ncc([N+](=O)[O-])s1
1 (yes)

Then this compound: O=[N+]([O-])c1ccc(O)c2ncccc12
0 (no)

Also need CC1(C)S[C@@H]2[C@H](N3C(=O)[C@@H](c4ccccc4)NC3(C)C)C(=O)N2[C@H]1C(=O)O , thanks.
1 (yes)

Field entry: CO[C@H]1C[C@H](O[C@H]2[C@H](C)O[C@@H](O[C@@H]3/C(C)=C/C[C@@H]4C[C@@H](C[C@]5(C=C[C@H](C)[C@@H](C6CCCCC6)O5)O4)OC(=O)[C@@H]4C=C(C)[C@@H](O)[C@H]5OC/C(=C\C=C\[C@@H]3C)[C@]54O)C[C@@H]2OC)O[C@@H](C)[C@@H]1O
1 (yes)

Try C[C@@H]1CN(c2c(F)c(N)c3c(=O)c(C(=O)O)cn(C4CC4)c3c2F)C[C@H](C)N1 next.
0 (no)

For CNC(=C[N+](=O)[O-])NCCSCc1csc(CN(C)C)n1 then?
1 (yes)

Okay, and CC(=O)OCC(=O)[C@@]1(O)CC[C@H]2[C@@H]3CCC4=CC(=O)C=C[C@]4(C)[C@@]3(Cl)[C@@H](Cl)C[C@@]21C ?
1 (yes)
